- subject.of.test: N-type calcium channel (Homo sapiens, UniProt Q00975)
- Construct: expressed in transfected cells
- Sequence (Q00975 whole entry): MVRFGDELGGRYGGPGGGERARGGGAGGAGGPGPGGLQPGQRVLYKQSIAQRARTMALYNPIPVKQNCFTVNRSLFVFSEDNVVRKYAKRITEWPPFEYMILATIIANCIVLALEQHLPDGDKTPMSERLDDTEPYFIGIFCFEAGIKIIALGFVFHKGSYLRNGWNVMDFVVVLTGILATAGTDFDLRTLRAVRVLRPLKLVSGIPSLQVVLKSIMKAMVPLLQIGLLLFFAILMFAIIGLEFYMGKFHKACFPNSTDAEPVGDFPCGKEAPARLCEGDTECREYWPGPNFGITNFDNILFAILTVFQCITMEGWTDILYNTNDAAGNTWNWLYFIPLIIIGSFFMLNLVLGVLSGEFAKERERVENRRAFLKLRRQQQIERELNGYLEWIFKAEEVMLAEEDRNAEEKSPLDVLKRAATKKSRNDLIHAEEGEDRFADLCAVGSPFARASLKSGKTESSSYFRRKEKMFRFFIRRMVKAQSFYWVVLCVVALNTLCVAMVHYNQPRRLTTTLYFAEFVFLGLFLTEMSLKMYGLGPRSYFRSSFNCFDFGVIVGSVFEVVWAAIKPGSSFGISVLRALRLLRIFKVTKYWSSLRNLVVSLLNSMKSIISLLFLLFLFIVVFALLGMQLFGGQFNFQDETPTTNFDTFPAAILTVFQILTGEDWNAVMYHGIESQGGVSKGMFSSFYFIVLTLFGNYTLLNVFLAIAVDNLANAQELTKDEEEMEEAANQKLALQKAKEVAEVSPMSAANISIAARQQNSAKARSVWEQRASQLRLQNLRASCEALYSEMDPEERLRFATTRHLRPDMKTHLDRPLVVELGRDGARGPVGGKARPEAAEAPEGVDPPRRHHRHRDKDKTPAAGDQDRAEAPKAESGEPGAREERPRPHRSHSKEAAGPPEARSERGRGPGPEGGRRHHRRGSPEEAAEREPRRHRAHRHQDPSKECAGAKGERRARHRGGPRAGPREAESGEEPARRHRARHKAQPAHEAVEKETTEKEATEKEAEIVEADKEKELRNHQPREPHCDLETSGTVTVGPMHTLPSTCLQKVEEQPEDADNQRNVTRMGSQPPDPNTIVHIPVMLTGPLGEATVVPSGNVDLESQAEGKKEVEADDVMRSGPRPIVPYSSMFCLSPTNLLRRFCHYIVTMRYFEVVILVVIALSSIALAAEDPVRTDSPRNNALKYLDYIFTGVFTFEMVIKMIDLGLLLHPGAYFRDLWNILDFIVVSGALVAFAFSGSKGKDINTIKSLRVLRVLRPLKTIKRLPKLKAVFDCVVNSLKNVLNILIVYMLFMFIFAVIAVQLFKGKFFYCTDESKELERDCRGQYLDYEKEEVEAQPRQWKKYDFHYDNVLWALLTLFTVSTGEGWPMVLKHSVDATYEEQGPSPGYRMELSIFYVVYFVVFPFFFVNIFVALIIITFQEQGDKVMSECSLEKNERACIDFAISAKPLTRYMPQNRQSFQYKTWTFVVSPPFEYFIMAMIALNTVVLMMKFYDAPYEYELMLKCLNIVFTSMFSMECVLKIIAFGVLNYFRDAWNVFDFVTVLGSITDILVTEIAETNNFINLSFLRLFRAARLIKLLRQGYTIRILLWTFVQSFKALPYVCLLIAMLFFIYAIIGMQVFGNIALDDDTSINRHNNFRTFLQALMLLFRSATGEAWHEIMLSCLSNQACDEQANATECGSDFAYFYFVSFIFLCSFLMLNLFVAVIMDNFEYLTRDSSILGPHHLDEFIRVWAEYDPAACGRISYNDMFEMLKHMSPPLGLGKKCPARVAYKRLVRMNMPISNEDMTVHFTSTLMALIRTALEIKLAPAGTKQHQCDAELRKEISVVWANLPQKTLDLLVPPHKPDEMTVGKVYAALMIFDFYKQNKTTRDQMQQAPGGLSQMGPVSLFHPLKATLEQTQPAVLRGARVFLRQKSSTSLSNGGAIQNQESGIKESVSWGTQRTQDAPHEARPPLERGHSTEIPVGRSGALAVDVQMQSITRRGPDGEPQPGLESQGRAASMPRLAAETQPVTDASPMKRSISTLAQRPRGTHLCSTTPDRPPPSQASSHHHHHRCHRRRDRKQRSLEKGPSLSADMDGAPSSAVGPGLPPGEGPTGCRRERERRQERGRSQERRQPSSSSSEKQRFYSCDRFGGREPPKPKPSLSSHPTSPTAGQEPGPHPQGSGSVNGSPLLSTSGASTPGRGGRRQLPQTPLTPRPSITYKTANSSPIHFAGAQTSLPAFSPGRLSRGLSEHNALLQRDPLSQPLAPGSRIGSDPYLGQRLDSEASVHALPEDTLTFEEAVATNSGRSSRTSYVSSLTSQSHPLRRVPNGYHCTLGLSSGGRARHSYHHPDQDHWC
- Sequence (P54284 whole entry partner): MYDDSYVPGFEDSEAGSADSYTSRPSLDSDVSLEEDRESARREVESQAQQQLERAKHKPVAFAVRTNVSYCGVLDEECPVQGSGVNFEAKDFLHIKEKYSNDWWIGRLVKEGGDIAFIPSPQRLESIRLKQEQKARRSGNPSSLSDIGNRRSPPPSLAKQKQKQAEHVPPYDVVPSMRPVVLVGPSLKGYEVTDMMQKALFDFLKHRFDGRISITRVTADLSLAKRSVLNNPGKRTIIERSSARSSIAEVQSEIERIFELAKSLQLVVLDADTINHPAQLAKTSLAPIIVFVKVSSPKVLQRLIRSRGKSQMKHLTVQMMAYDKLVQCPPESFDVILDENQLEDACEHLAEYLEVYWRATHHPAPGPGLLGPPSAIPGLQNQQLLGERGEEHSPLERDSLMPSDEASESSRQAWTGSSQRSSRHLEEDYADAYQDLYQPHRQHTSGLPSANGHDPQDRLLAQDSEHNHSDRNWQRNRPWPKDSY
- Sequence (P54289 25-956 partner limits assumed): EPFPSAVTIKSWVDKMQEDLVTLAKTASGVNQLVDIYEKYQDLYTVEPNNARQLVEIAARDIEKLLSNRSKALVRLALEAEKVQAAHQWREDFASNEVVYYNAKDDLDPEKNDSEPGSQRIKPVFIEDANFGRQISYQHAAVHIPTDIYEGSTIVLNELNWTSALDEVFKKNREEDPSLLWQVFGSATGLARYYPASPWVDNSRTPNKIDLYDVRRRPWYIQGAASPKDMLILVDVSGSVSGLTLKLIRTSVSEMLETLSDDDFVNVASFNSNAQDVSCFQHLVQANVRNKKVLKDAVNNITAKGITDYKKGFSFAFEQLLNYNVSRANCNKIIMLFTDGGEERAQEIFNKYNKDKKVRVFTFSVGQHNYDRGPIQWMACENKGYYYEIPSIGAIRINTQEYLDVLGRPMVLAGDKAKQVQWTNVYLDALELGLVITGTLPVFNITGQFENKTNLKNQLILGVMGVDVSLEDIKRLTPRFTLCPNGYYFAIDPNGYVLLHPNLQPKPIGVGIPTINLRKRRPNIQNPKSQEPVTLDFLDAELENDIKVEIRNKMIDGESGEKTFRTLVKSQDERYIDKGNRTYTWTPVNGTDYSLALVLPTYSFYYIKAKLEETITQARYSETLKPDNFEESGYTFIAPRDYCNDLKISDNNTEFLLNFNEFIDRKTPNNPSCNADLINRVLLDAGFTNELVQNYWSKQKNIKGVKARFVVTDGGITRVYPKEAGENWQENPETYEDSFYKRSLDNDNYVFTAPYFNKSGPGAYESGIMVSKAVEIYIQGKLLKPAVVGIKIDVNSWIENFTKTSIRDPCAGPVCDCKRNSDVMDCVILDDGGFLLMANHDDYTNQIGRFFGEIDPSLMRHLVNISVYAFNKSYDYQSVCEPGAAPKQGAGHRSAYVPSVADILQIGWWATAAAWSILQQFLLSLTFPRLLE
- Sequence (P54289 957-1103 partner limits assumed): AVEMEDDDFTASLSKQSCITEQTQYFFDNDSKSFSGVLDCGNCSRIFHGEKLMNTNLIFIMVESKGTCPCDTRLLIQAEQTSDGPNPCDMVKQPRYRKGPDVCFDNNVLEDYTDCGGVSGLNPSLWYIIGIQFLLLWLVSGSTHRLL
- protocol.summary: Automated electrophysiology assay (QPatch-HT whole-cell patch clamp)
- Format: cell-based
- cond: 0.25 μM; high frequency (15th pulse of train, 5 Hz); read-out: QPatch at High Frequency % Inhibition
value.kind: inhibition at 0.25 µM (%)

COc1ccccc1-n1nc2c(c1-c1ccc(Cl)cc1)CN(S(=O)(=O)C1CCCC1)C2 [Cpd 40]    69
COc1ccccc1-n1nc2c(c1-c1ccc(Cl)cc1)CN(S(=O)(=O)CC(F)(F)F)C2 [Cpd 36]    58
COc1ccccc1-n1nc2c(c1-c1ccc(Cl)cc1)CN(S(=O)(=O)C1CC1)C2 [Cpd 32]    64
COc1ccccc1-n1nc2c(c1-c1ccc(Cl)cc1)CN(S(=O)(=O)C1CCCCC1)C2 [Cpd 37]    73

====

- subject.of.test: N-type calcium channel α1B (Cav2.2), β3 and α2δ subunits (Homo sapiens, UniProt Q00975)
- Sequence (Q00975 whole entry): as the sequence (Q00975 whole entry) above
- Sequence (P54284 whole entry partner): as the sequence (P54284 whole entry partner) above
- Sequence (P54289 25-956 partner limits assumed): as the sequence (P54289 25-956 partner limits assumed) above
- Sequence (P54289 957-1103 partner limits assumed): as the sequence (P54289 957-1103 partner limits assumed) above
- protocol.summary: Functional assay, antagonism of N-type calcium channel (FDSS calcium mobilization response to KCl depolarization)
- cond: HEK stable cell line; 50 mM KCl depolarization; six-point concentration-response
pIC50: −log10 of the molar value.
value.kind: pIC50

(a) COc1ccccc1-n1nc2c(c1-c1ccc(Cl)cc1)CN(S(=O)(=O)C1CCCC1)C2
(b) CCc1ccccc1-n1nc2c(c1-c1ccc(Cl)cc1)CN(C(=O)c1cccnc1)C2
(c) O=S1(=O)CCC(S(=O)(=O)N2Cc3nn(-c4ccccc4OC(F)(F)F)c(-c4ccc(Cl)cc4)c3C2)C1 (stereo not drawn)
(d) CC(C)S(=O)(=O)N1Cc2nn(-c3ccccc3OC(F)(F)F)c(-c3ccc(Cl)cc3)c2C1
Ask: Arrange these compounds by their pIC50, starting with the largest number. Respond with an ordered listing of the labels, as requested.
Result: a, d, c, b

(I) COc1ccccc1-n1nc2c(c1-c1ccc(Cl)cc1)CN(S(=O)(=O)C1CCCCC1)C2
(II) CCc1ccccc1-n1nc2c(c1-c1ccc(Cl)cc1)CN(C(=O)OC(C)(C)C)C2
(III) CCc1ccccc1-n1nc2c(c1-c1ccc(Cl)cc1)CN(S(C)(=O)=O)C2
(IV) COC(=O)CCS(=O)(=O)N1Cc2nn(-c3ccccc3OC(F)(F)F)c(-c3ccc(Cl)cc3)c2C1
(V) CCOc1ccccc1-n1nc2c(c1-c1ccc(Cl)cc1)CN(S(=O)(=O)C1CCCC1)C2
Ask: Rank items: key pIC50, increasing. Returns: the labels listed in the requested order.
Result: II, III, IV, I, V
(II: 6.74, III: 7.07, IV: 7.51, I: 7.80, V: 8.30)

(A) CCc1ccccc1-n1nc2c(c1-c1ccc(Cl)cc1)CN(C(=O)CNC(=O)OC(C)(C)C)C2
(B) COc1cc(F)ccc1-n1nc2c(c1-c1ccc(Cl)cc1)CN(S(=O)(=O)N1CCC(C)CC1)C2
Ask: Pick one: A or B . Which one has the lower reported pIC50? Give the chosen item's label as your response.
Result: A

====

- subject.of.test: N-type calcium channel α1B (Cav2.2), β3 and α2δ subunits (Homo sapiens, UniProt Q00975)
- Construct: expressed in transfected cells
- protocol.summary: Functional assay, antagonism of N-type calcium channel (FDSS calcium mobilization response to KCl depolarization)
- Assay type: cell-based
- cond: 0.33 μM compound; FDSS, 50 mM KCl
value.kind: inhibition at 0.33 µM (%)

Answered cases to consult:
CC(C)S(=O)(=O)N1Cc2nn(-c3cccc4c3OCC4)c(-c3ccc(Cl)cc3)c2C1    94
COc1ccccc1-n1nc2c(c1-c1ccc(Cl)nc1)CN(S(=O)(=O)C(C)C)C2    86
COc1ccc(-c2c3c(nn2-c2ccccc2OC)CN(S(=O)(=O)C(C)C)C3)cn1    67

(1) CCS(=O)(=O)N1Cc2nn(-c3ccccc3N(C)C)c(-c3ccc(Cl)cc3)c2C1
(2) COc1ccc(-n2nc3c(c2-c2ccc(Cl)cc2)CN(S(C)(=O)=O)C3)c(F)c1
Ask: Could you determine which record has the numerically smaller inhibition at 0.33 µM? Candidates: 1 and 2 Choose, then provide that item's label.
Result: 2

====

- subject.of.test: N-type calcium channel (Homo sapiens, UniProt Q00975)
- Construct: expressed in transfected cells
- protocol.summary: Automated electrophysiology assay (QPatch-HT whole-cell patch clamp)
- Assay type: cell-based
- cond: 0.1 μM; low frequency (1st pulse of train); read-out: QPatch at Low Frequency % Inhibition
value.kind: inhibition at 0.1 µM (%)

Recorded results for 2 compounds are shown here.
COc1ccccc1-n1nc2c(c1-c1ccc(Cl)cc1)CN(S(=O)(=O)C(C)C)C2    11
CN(C)S(=O)(=O)N1Cc2nn(-c3ccccc3OCC(F)F)c(-c3ccc(Cl)cc3)c2C1    -4

(A) CCS(=O)(=O)N1Cc2nn(-c3ccccc3N(C)C)c(-c3ccc(Cl)cc3)c2C1
(B) COc1cc(F)ccc1-n1nc2c(c1-c1ccc(Cl)cc1)CN(S(=O)(=O)C(C)C)C2
(C) COc1ccccc1-n1nc2c(c1-c1ccc(Cl)cc1)CN(S(=O)(=O)CCNS(C)(=O)=O)C2
(D) COc1ccccc1-n1nc2c(c1-c1ccc(Cl)cc1)CN(S(=O)(=O)N1CCCCCC1)C2
Ask: Hey, can you sort those compounds up there by inhibition at 0.1 µM, smallest first? Provide the labels, sequenced as the question asks.
Result: B, C, A, D
(B: -30%, C: -2%, A: 10%, D: 25%)

(I) CC(C)CS(=O)(=O)N1Cc2nn(-c3cccc4c3OCC4)c(-c3ccc(Cl)cc3)c2C1
(II) CCOc1ccccc1-n1nc2c(c1-c1ccc(Cl)cc1)CN(S(=O)(=O)C1CCCC1)C2
Ask: Pick one, I or II : lowest reported inhibition at 0.1 µM. Returns: label corresponding to the selected item.
Result: I

====

- subject.of.test: N-type calcium channel α1B (Cav2.2), β3 and α2δ subunits (Homo sapiens, UniProt Q00975)
- Construct: expressed in transfected cells
- protocol.summary: Functional assay, antagonism of N-type calcium channel (FDSS calcium mobilization response to KCl depolarization)
- Type: cell-based
- cond: HEK stable cell line; 50 mM KCl depolarization; six-point concentration-response
pIC50: −log10 of the molar value.
value.kind: pIC50

See these solved cases before continuing.
CC(C)(C)OC(=O)N1Cc2nn(-c3ccccc3OC(F)(F)F)c(-c3ccc(Cl)cc3)c2C1 [Cpd 19]    6.52
COc1ccc(-n2nc3c(c2-c2ccc(Cl)cc2)CN(S(=O)(=O)C(C)C)C3)c(F)c1 [Cpd 79]    6.74
CCc1ccccc1-n1nc2c(c1-c1ccc(Cl)cc1)CN(C(=O)C(F)(F)F)C2 [Cpd 6]    6.74
CS(=O)(=O)N1Cc2nn(-c3ccccc3C(F)(F)F)c(-c3ccc(Cl)cc3)c2C1 [Cpd 15]    6.55
COc1ccc(-n2nc3c(c2-c2ccc(Cl)cc2)CN(S(=O)(=O)C(C)C)C3)c(C)c1 [Cpd 67]    6.72
COc1ccccc1-n1nc2c(c1-c1ccc(OC(C)C)nc1)CN(S(=O)(=O)C(C)C)C2 [Cpd 96]    6.89

(I) COc1ccccc1-n1nc2c(c1-c1ccc(Cl)cc1)CN(S(=O)(=O)C(C)C)C2 [Cpd 31]
(II) COc1ccc(-n2nc3c(c2-c2ccc(Cl)cc2)CN(S(C)(=O)=O)C3)c(F)c1 [Cpd 78]
(III) CCS(=O)(=O)N1Cc2nn(-c3ccccc3N(C)C)c(-c3ccc(Cl)cc3)c2C1 [Cpd 89]
(IV) COc1ccccc1-n1nc2c(c1-c1ccc(Cl)cc1)CN(S(=O)(=O)c1c(C)noc1C)C2 [Cpd 87]
(V) COc1ccccc1-n1nc2c(c1-c1ccc(Cl)cc1)CN(S(=O)(=O)N1C[C@H](C)O[C@@H](C)C1)C2 (mixture of isomers) [Cpd 61]
Ask: Given 5 compounds, produce a descending ranking by pIC50. Returns: the labels arranged in the requested order.
Result: V, I, IV, III, II

====

- subject.of.test: N-type calcium channel (Homo sapiens)
- Construct: expressed in transfected cells
- protocol.summary: Automated electrophysiology assay (QPatch-HT whole-cell patch clamp)
- Format: cell-based
- cond: 0.1 μM; low frequency (1st pulse of train); read-out: QPatch at Low Frequency % Inhibition
value.kind: inhibition at 0.1 µM (%)

These recorded examples may help you get a feel for the data.
COc1ccccc1-n1nc2c(c1-c1ccc(Cl)cc1)CN(S(=O)(=O)N1CCCC1)C2 [Cpd 60]    29
COc1cc(F)ccc1-n1nc2c(c1-c1ccc(Cl)cc1)CN(S(=O)(=O)N1CCC(C)CC1)C2 [Cpd 73]    -34
COc1ccccc1-n1nc2c(c1-c1ccc(Cl)cc1)CN(S(=O)(=O)CCNS(=O)(=O)N(C)C)C2 [Cpd 46]    -8
CCCC(C)S(=O)(=O)N1Cc2nn(-c3ccccc3OC)c(-c3ccc(Cl)cc3)c2C1 (centres unmarked) [Cpd 41]    7
COC(=O)CCS(=O)(=O)N1Cc2nn(-c3ccccc3OC(F)(F)F)c(-c3ccc(Cl)cc3)c2C1 [Cpd 47]    8
COc1ccccc1-n1nc2c(c1-c1ccc(Cl)cc1)CN(S(=O)(=O)CCNS(=O)(=O)C(C)C)C2 [Cpd 45]    26
COc1cc(Cl)ccc1-n1nc2c(c1-c1ccc(Cl)cc1)CN(S(=O)(=O)N(C)C)C2 [Cpd 65]    -8
COc1cc(Cl)ccc1-n1nc2c(c1-c1ccc(Cl)cc1)CN(S(=O)(=O)C(C)C)C2 [Cpd 64]    12

(1) CC(C)S(=O)(=O)N1Cc2nn(-c3cccc4c3OCO4)c(-c3ccc(Cl)cc3)c2C1 [Cpd 81]
(2) CC1CCN(S(=O)(=O)N2Cc3nn(-c4cccc5c4OCC5)c(-c4ccc(Cl)cc4)c3C2)CC1 [Cpd 86]
(3) CCOc1ccccc1-n1nc2c(c1-c1ccc(Cl)cc1)CN(S(=O)(=O)N(C)C)C2 [Cpd 54]
(4) CC(C)S(=O)(=O)N1Cc2nn(-c3cccc4c3OCC4)c(-c3ccc(Cl)cc3)c2C1 [Cpd 84]
(5) COc1ccccc1-n1nc2c(c1-c1ccc(Cl)nc1)CN(S(=O)(=O)C(C)C)C2 [Cpd 92]
Ask: Arrange these compounds by their inhibition at 0.1 µM, starting with the largest number. Answer with the labels in sequence, matching the requested order.
Result: 3, 2, 5, 4, 1
(3: 36%, 2: 20%, 5: 14%, 4: -3%, 1: -19%)
